Target: TxtE (Streptomyces scabiei, UniProt C9ZDC6)
Test: biochemical
Assay type: binding, Streptomyces scabies
Parameters: made in house; host or cells: E. coli BL21-GOLD (DE3), pET28b
MEASURED PARAMETER: pKd
Expect pKd as a plain number equal to -log10 of the molar concentration.

- N[C@@H](Cc1c[nH]c2ccccc12)C(=O)O: 4.60

Tested on TxtE (Streptomyces scabiei, UniProt C9ZDC6): NCCc1c[nH]c2ccc(O)cc12 . Observed pKd: 3.49

---

Molecular target: TB15
Experiment: UV-Vis difference spectroscopy (Type I shift, ΔA ~390 minus ~420 nm) titration of Trp to 1.5 µM purified P450 in 25 mM Tris-HCl, pH 8.0, hyperbolic fit; at least three repeats.
Settings: n = 3
MEASURED PARAMETER: pKd
Expect pKd as a plain number equal to -log10 of the molar concentration.

Looking up N[C@@H](Cc1c[nH]c2ccccc12)C(=O)O , I found its pKd recorded as 4.67

---

Target: TB13-Q
Assay: UV-Vis difference spectroscopy (Type I shift, ΔA ~390 minus ~420 nm) titration of Trp to 1.5 µM purified P450 in 25 mM Tris-HCl, pH 8.0, hyperbolic fit; at least three repeats.
Conditions: n = 3
MEASURED PARAMETER: Kd (µM)
Give a bare numeral; the unit µM is implied.

Looking up N[C@@H](Cc1c[nH]c2ccccc12)C(=O)O , I found its Kd recorded as 21.5

---

Target: TB14 (UniProt C9ZDC6)
MEASURED PARAMETER: pKd
Expect pKd as a plain number equal to -log10 of the molar concentration.

As a guide, the following entries are already answered.
- O=C(O)C(=O)Cc1c[nH]c2ccccc12 [Indole-3-pyruvic acid]: 3.32
- NCCc1c[nH]c2ccccc12 [Tryptamine]: 4.22
- NCCc1c[nH]c2ccc(O)cc12 [Serotonin]: 3.51
- N[C@@H](Cc1c[nH]c2ncccc12)C(=O)O [7-Azatryptophan]: 4.59

Tested on TB14 (UniProt C9ZDC6): N[C@@H](Cc1c[nH]c2ccccc12)C(=O)O [L-Trp, L-tryptophan] . Observed pKd: 4.77

---

Biological target: TB16
Assay: UV-Vis difference spectroscopy (Type I shift, ΔA ~390 minus ~420 nm) titration of Trp to 1.5 µM purified P450 in 25 mM Tris-HCl, pH 8.0, hyperbolic fit; at least three repeats.
Conditions: n = 3
MEASURED PARAMETER: pKd
Expect pKd as a plain number equal to -log10 of the molar concentration.

Looking up N[C@@H](Cc1c[nH]c2ccccc12)C(=O)O [Trp, L-tryptophan] , I found its pKd recorded as 4.72

---

Biological target: TB13
Assay: UV-Vis difference spectroscopy (Type I shift, ΔA ~390 minus ~420 nm) titration of Trp to 1.5 µM purified P450 in 25 mM Tris-HCl, pH 8.0, hyperbolic fit; at least three repeats.
Conditions: n = 3
Description: We next determined coupling efficiency to evaluate the extent to which linker length and structural swapping may affect electron transfer compatibility during nitration reaction (Table 1). […] Additionally, we determined total turnover number (TTN) as nmol product per nmol P450 in all reactions (Table 1). The ferric heme of enzymes was then saturated by bubbling carbon monoxide (Airgas) and the spectra of the saturated enzyme solutions were recorded. […] Data were further analyzed by Excel. […]
MEASURED PARAMETER: Kd
The reply must contain the numeric value and, after it, the unit.

Tested on TB13: N[C@@H](Cc1c[nH]c2ccccc12)C(=O)O [Trp, L-tryptophan] . Observed Kd: 21.3 µM

---

Biological target: TB13S
Assay: UV-Vis difference spectroscopy (Type I shift, ΔA ~390 minus ~420 nm) titration of Trp to 1.5 µM purified P450 in 25 mM Tris-HCl, pH 8.0, hyperbolic fit; at least three repeats.
Settings: n = 3
MEASURED PARAMETER: Kd
The reply must contain the numeric value and, after it, the unit.

Looking up N[C@@H](Cc1c[nH]c2ccccc12)C(=O)O , I found its Kd recorded as 19.3 µM

---

Molecular target: TB14 (UniProt C9ZDC6+P14779)
Construct: BM3R: reductase domain of CYP102A1 (P450BM3)
Test: Binding affinities of Trp analogues toward TB14 (spectral shift)
Conditions: read-out: TB14 Kd; 1.5 µM enzyme, 25 mM Tris-HCl pH 8.0
Measured Kd, listed per entry.
Give a bare numeral; the unit µM is implied.

As a guide, the following entries are already answered.
- N[C@H](Cc1c[nH]c2ccccc12)C(=O)O [D-Trp]: 470
- N[C@@H](Cc1c[nH]c2cc(F)ccc12)C(=O)O [6-F-Trp]: 65
- Cc1ccc2[nH]cc(CC(N)C(=O)O)c2c1 (stereo not drawn) [5-Me-Trp]: 30

Looking up CC(N)(Cc1c[nH]c2ccccc12)C(=O)O (stereo not drawn) [α-Me-Trp] , I found its Kd recorded as 95

---

Biological target: TxtE (Streptomyces scabiei, UniProt C9ZDC6)
Construct: wild type, pET28b construct, Ni-NTA purified
Test: UV-Vis difference spectroscopy (Type I shift) titration of Trp analogues to 1.5 µM purified P450 in 25 mM Tris-HCl, pH 8.0, fitted to Michaelis-Menten type equation; at least three repeats.
Format: binding
Conditions: read-out: TxtE Kd (µM); TB14 Kd; n = 3
Measured log10 of Kd, listed per entry.
Short version: log10 scale, Kd, µM.

* COc1ccc2[nH]cc(CC(N)C(=O)O)c2c1 (racemic) | 1.46
* N[C@@H](Cc1c[nH]c2ccc(O)cc12)C(=O)O [5-OH-L-Trp, 5-hydroxy-L-tryptophan] | 2.53
* N[C@H](CO)Cc1c[nH]c2ccccc12 | 2.34
* Cc1ccc2[nH]cc(CC(N)C(=O)O)c2c1 (racemic) | 1.54
* N[C@H](Cc1c[nH]c2ccccc12)C(=O)O | 2.63

Looking up O=C(O)C1Cc2c([nH]c3ccccc23)CN1 (stereo not shown) , I found its log10 of Kd recorded as 2.76

Looking up Cc1cccc2c(CC(N)C(=O)O)c[nH]c12 (racemic) , I found its log10 of Kd recorded as 1.11

---

Molecular target: TB11
Test: UV-Vis difference spectroscopy (Type I shift, ΔA ~390 minus ~420 nm) titration of Trp to 1.5 µM purified P450 in 25 mM Tris-HCl, pH 8.0, hyperbolic fit; at least three repeats.
Conditions: n = 3
MEASURED PARAMETER: pKd
Expect pKd as a plain number equal to -log10 of the molar concentration.

Tested on TB11: N[C@@H](Cc1c[nH]c2ccccc12)C(=O)O . Observed pKd: 4.79

---

Biological target: UniProt:C9ZDC6
Assay: biochemical
Format: binding, Streptomyces scabies
Parameters: made in house; host or cells: E. coli BL21-GOLD (DE3), pET28b
Measured pKd, listed per entry.
Expect pKd as a plain number equal to -log10 of the molar concentration.

* NCCc1c[nH]c2ccccc12 | 4.17

Looking up O=C(O)C(=O)Cc1c[nH]c2ccccc12 , I found its pKd recorded as 3.41

Looking up N[C@@H](Cc1c[nH]c2ncccc12)C(=O)O , I found its pKd recorded as 4.77

---

Target: TB14 (UniProt C9ZDC6+P14779)
Construct: BM3R: reductase domain of CYP102A1 (P450BM3)
Assay: Binding affinities of Trp analogues toward TB14 (spectral shift)
Conditions: read-out: TB14 Kd; 1.5 µM enzyme, 25 mM Tris-HCl pH 8.0
In plain terms, low Kd, meaning strictly below 300 µM, gives Met, and everything else gives Not met.

Worked examples follow.
• N[C@@H](Cc1c[nH]c2ccc(F)cc12)C(=O)O [5-F-L-Trp] = Met
• NC(Cc1c[nH]c2cccc(F)c12)C(=O)O (centres unmarked) [4-F-Trp] = Met
• Cc1cccc2[nH]cc(CC(N)C(=O)O)c12 (racemic) [4-Me-Trp, 4-Me-DL-Tryptophan] = Met
• N[C@@H](Cc1c[nH]c2ccc(O)cc12)C(=O)O [5-OH-L-Trp] = Not met
• O=C(O)C1Cc2c([nH]c3ccccc23)CN1 (centres unmarked) = Not met

Prompt: Strictly below 300 µM in Kd? COc1ccc2[nH]cc(CC(N)C(=O)O)c2c1 (centres unmarked) [5-MeO-Trp]
Response: Met

Prompt: Strictly below 300 µM in Kd? N[C@H](CO)Cc1c[nH]c2ccccc12 [L-tryptophanol]
Response: Met

Prompt: Strictly below 300 µM in Kd? Cc1cccc2c(CC(N)C(=O)O)c[nH]c12 (centres unmarked) [7-Me-Trp]
Response: Met
